- experimental.system: UniProt:P22894
- Sequence (P22894 101-467): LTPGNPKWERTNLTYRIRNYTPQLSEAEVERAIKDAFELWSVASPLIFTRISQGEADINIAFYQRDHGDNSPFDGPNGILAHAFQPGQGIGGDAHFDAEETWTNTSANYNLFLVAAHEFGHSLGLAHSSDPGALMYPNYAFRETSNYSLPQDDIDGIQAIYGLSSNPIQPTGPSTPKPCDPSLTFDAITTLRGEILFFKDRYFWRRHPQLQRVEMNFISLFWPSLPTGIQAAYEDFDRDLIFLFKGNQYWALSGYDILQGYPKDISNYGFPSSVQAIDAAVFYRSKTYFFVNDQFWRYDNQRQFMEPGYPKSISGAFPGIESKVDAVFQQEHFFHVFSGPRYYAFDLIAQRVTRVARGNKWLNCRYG
- assay.text: Fluorometric substrate assay (MMP inhibitor profiling kit)
- run.conditions: human recombinant MMP-8, 60 min preincubation, four-parameter fit
observed.property: IC50 (µM)

{"sample.smiles": "C[C@@H]1CCO[C@H]2Cn3cc(C(=O)NCc4ccc(F)cc4F)c(=O)c(O)c3C(=O)N12", "observed.property": "IC50", "numeric.result": 12.1}

* * *

- experimental.system: MMP-2 (Homo sapiens)
- Sequence (P08253 110-660): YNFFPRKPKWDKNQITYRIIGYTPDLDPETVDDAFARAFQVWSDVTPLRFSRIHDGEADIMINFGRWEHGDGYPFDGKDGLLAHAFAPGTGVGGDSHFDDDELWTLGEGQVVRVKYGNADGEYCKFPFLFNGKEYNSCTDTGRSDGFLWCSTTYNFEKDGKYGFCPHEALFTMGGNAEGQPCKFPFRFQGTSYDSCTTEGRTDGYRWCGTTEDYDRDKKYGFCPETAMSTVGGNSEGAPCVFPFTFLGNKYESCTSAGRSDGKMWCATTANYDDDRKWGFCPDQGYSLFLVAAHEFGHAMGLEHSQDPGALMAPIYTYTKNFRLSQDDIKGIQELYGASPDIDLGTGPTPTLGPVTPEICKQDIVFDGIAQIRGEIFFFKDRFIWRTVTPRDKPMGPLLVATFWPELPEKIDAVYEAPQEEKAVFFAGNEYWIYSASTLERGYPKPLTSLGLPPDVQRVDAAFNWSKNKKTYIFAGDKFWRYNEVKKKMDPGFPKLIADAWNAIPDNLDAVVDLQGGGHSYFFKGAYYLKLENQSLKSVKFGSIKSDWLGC
- assay.text: Fluorometric substrate assay (MMP inhibitor profiling kit)
- run.conditions: human recombinant MMP-2, 60 min preincubation, four-parameter fit
- Method: Kit contained a panel of ten MMPs and a quenched fluorogenic substrate OMNIMMP® RED. […] The plate was continuously read at Ex/Em = 545/576 nm (cutoff at 570 nm) for 30 min with 1-min time intervals at constant temperature, 37 °C, using Molecular Devices SpectraMax M3 plate reader with SoftMax Pro 6.2 software.
observed.property: IC50 (µM)

{"sample.smiles": "C[C@@H]1CCO[C@H]2Cn3cc(C(=O)NCc4ccc(F)cc4F)c(=O)c(O)c3C(=O)N12", "numeric.result": 16.9}
